target: GSK3β (Homo sapiens (Human), UniProt P49841)
Sequence (P49841 whole entry): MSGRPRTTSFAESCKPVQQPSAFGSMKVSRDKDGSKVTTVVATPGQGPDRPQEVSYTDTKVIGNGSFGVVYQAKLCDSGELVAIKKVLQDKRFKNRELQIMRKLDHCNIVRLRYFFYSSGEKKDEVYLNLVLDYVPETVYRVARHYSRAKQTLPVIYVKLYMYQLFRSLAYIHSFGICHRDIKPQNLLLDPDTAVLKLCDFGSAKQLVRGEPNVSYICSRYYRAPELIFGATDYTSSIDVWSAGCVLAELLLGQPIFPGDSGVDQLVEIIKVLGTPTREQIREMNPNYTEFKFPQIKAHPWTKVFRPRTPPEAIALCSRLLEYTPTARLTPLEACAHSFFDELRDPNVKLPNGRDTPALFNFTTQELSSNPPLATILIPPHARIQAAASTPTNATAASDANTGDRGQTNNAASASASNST
ENDPOINT_NAME: IC50

Measured IC50 (GSK3β (Homo sapiens (Human), UniProt P49841)), entry CC1(C)CC(=O)C2=C(C1)Nc1n[nH]c(C(F)(F)F)c1[C@@H]2c1c(F)cccc1F : < 0.1 µM

----------
biological target: CDK5/p25 (Homo sapiens (Human))
Sequence (Q00535 whole entry, species assumed): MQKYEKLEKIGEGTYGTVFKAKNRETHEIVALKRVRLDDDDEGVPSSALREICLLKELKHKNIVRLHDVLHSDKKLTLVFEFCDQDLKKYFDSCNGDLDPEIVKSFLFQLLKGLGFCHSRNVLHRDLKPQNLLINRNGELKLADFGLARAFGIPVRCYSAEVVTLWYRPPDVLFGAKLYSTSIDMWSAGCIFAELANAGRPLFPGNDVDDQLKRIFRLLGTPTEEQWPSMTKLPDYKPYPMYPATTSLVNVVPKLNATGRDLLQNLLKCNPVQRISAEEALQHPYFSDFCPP
Sequence (Q15078 99-307 partner, species assumed): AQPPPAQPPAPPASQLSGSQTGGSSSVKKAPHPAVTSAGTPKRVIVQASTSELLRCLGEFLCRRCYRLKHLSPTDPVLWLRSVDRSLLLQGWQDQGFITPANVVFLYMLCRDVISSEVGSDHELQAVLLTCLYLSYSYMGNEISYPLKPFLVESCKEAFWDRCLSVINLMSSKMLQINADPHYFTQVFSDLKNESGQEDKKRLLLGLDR
ADP Glo Assay GSK3β vs CDK5 fold selectivity for assorted molecules
Expressed in X, but write only the number.

// known answers, use as guide
MOLECULE	DISPLAY_UNIT	READOUT_NUMBER
COc1ccccc1C1C2=C(CCC(C)(C)C2=O)Nc2n[nH]c(C)c21 (centres unmarked)	X	20
Cc1ccccc1C1C2=C(CC(C)(C)CC2=O)Nc2n[nH]c(C)c21 (centres unmarked)	X	14
COc1ccccc1C1C2=C(CC(C)(C)CC2=O)Nc2n[nH]c(C(C)C)c21 (centres unmarked)	X	14
COc1ccccc1C1C2=C(CC(C)(C)CC2=O)Nc2n[nH]cc21 (centres unmarked)	X	34
Cc1[nH]nc2c1C(c1ccccc1C(F)(F)F)C1=C(CC(C)(C)CC1=O)N2 (racemic)	X	34
Cc1[nH]nc2c1C(c1ccccc1Br)C1=C(CC(C)(C)CC1=O)N2 (centres unmarked)	X	14
Cc1[nH]nc2c1C(C)C1=C(CC(C)(C)CC1=O)N2 (centres unmarked)	X	23

Turning now to a further molecule:
So for CC1(C)CC(=O)C2=C(C1)Nc1n[nH]c(C(F)(F)F)c1C2(C)c1ccccc1 (racemic) , the logged ADP Glo Assay GSK3β vs CDK5 fold selectivity turned out to be 244

----------
test system: phospho-Tau (Ser199) in SH-SY5Y cells; test: Tau phosphorylation assay (phospho-Tau Ser199 ELISA); assay type: cell-based, human; details: Homo sapiens, SH-SY5Y, read-out: p-Tau Inhibition ELISA EC50 SH-SY5Y
EC50 for assorted compounds

// known answers, use as guide
COMPOUND	MEASURED_ON	RESULT
CC1(C)CC(=O)C2=C(C1)Nc1n[nH]c(Cl)c1C2(C)c1ccccc1 (stereo not shown)	phospho-Tau (Ser199) in SH-SY5Y cells	4.55 µM
COc1ccccc1[C@H]1C2=C(CC(C)(C)CC2=O)Nc2n[nH]c(C)c21	phospho-Tau (Ser199) in SH-SY5Y cells	> 30 µM
Cc1[nH]nc2c1C(c1cccc3nonc13)C1=C(CC(C)(C)CC1=O)N2 (stereo not shown)	phospho-Tau (Ser199) in SH-SY5Y cells	2.27 µM

Turning now to a further compound:
So for CC1(C)CC(=O)C2=C(C1)Nc1n[nH]c(C(F)(F)F)c1[C@H]2c1ccccc1C(F)(F)F (stereo in doubt) , the logged EC50 turned out to be 22 µM

----------
molecular target: GSK3β (Homo sapiens (Human), UniProt P49841)
ENDPOINT_NAME: IC50

Measured IC50 (GSK3β (Homo sapiens (Human), UniProt P49841)), entry CC1(C)CC(=O)C2=C(C1)Nc1n[nH]c(C(F)(F)F)c1[C@@H]2c1c(F)cccc1F : < 100 nM

----------
pEC50 for assorted compounds
tested on: phospho-Tau (Ser199) in SH-SY5Y cells; test: Tau phosphorylation assay (phospho-Tau Ser199 ELISA); assay type: cell-based, human; conditions: Homo sapiens, SH-SY5Y, read-out: p-Tau Inhibition ELISA EC50 SH-SY5Y
# log scale: pEC50 equals minus log10 of the concentration in mol/L

// known answers, use as guide
COMPOUND	ENDPOINT_NAME	READOUT_NUMBER
CC1(C)CC(=O)C2=C(C1)Nc1n[nH]c(C(F)(F)F)c1[C@@H]2c1ccccc1C(F)(F)F (stereo in doubt) [Compound 72]	pEC50	6.37
Cc1[nH]nc2c1C(c1cccc(C(F)(F)F)c1)C1=C(CC(C)(C)CC1=O)N2 (stereo not shown) [Compound 30]	pEC50	5.33
CC1(C)CC(=O)C2=C(C1)Nc1n[nH]c(C(F)(F)F)c1C2(C)c1ccccc1 (single isomer, unassigned) [Compound 70]	pEC50	6.09

So for COc1ccccc1C1C2=C(CC(C)(C)CC2=O)Nc2n[nH]c(C)c21 (racemic) [Compound 20] , the logged pEC50 turned out to be 5.04

So for CC1(C)CC(=O)C2=C(C1)Nc1n[nH]c(Br)c1C2(C)c1ccccc1 (stereo not shown) [Compound 111] , the logged pEC50 turned out to be 5.53

So for Cc1[nH]nc2c1C(c1ccccc1Cl)C1=C(CC(C)(C)CC1=O)N2 (stereo not shown) [Compound 13] , the logged pEC50 turned out to be 5.60
